- Tested on: human ether-à-go-go-related gene (hERG) potassium channel (human);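 also: peak tail current of the secondary pulse compared with the same well before compound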
- Sequence (Q12809 whole entry, looked up): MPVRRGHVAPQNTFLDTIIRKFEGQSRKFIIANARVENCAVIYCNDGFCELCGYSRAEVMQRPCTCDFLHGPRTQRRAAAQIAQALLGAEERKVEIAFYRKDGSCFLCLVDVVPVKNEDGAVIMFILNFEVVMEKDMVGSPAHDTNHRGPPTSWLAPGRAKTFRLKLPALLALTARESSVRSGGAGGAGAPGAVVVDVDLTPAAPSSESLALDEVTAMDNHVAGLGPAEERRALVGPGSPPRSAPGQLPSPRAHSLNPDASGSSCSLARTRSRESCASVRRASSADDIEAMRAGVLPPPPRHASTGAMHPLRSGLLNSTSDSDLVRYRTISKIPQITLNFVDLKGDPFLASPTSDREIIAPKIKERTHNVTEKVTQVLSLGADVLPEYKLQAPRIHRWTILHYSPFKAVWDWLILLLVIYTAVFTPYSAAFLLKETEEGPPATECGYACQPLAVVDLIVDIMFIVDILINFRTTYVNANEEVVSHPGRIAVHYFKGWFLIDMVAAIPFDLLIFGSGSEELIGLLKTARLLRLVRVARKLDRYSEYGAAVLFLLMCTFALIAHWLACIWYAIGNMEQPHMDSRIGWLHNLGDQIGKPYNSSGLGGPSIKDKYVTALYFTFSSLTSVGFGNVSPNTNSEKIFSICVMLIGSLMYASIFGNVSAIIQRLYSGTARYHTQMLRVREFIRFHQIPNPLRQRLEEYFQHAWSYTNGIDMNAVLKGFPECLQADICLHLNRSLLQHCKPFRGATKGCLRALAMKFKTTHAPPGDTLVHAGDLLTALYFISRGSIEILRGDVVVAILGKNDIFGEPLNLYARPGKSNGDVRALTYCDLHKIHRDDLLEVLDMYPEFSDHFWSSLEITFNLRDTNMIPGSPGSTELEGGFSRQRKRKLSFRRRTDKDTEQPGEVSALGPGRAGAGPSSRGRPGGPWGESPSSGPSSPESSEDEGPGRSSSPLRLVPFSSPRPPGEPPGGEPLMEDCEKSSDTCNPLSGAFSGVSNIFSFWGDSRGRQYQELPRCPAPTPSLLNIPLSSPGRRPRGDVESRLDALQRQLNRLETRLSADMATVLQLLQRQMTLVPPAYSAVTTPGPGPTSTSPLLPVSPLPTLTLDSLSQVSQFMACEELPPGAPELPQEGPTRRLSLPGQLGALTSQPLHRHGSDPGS
- Protocol: primary screen, population patch clamp on CHO cells stably expressing hERG; higher = less effect of the substance
The whole screen tested about 310,000 compounds, of which about 14,000 (4.5%) showed an effect of 50% or more. Effects have a minus sign here. The full list was thinned out, with strong results kept by preference.
For each record, write down the corresponding hERG current change (%, negative = inhibition) at 10uM.
Give bare numbers, in %.

For orientation, consider the following solved cases.
CC(=O)Nc1ccc(SC[C@H](Cc2ccccc2)N2CCN(CCc3ccccc3)CCC2=O)cc1    -55.9
CC(=O)Nc1ccc(SC[C@H](Cc2ccccc2)N2CC[C@@H](C(C)(C)C)CCC2=O)cc1    5.23
O=[N+]([O-])c1cc([As](=O)(O)O)ccc1O    19.8
Cc1cnc([N+](=O)[O-])n1CCOC(=O)NC(=O)c1ccccc1Cl    8.87
O=C(COc1ccccc1[N+](=O)[O-])Nc1ccccc1N1CCCC1    -29.1
NC(=O)CC(NC(=O)c1cccc(Br)c1)c1ccc(NC2CCC2)c([N+](=O)[O-])c1 (stereo not drawn)    -59.8
Cc1cc(C)cc(C(=O)NC(CC(N)=O)c2ccc(NCC3CC3)c([N+](=O)[O-])c2)c1 (stereo not drawn)    -30.4
COCCN1C(=O)c2ccccc2C(C(=O)Nc2ccc3c(c2)OCCO3)C1c1ccc(F)cc1 (stereo not drawn)    17.1
CC(=O)Nc1ccc(SC[C@H](Cc2ccccc2)N2CC[C@@H](O)CCC2=O)cc1    -7.75
O=C(O)Cn1nnc(-c2ccc(OCc3ccccc3)cc2)n1    23.9

Each compound below has a recorded value; state its hERG current change (%, negative = inhibition) at 10uM.
1. CCCN1CCC(=O)N(CCSc2ccc(NC(C)=O)cc2)CC1
2. CCCCC1CCCOC(C(=O)NCCNCCO)(C(F)(F)F)C1 (stereo not drawn)

Result:
1. 6.8
2. 6.03
